# system: HLA-DRB1*0101 (human)
# test summary: competition binding
# experimental context: modification not given

binder: TCVEWLRRYLENGKE [p34*]
IC50: > 100 µM

binder: LTWQRDGEDQTQDTE [p43]
IC50: > 100 µM

binder: EDLRSWTAADMAAQT [p27]
IC50: > 100 µM

Source: patent US20110038881A1
